system name: recombinant SARS-CoV-2 main protease (Mpro) (Severe acute respiratory syndrome coronavirus 2)
Construct: the main protease (Mpro; also called 3CLpro) which has an essential role in processing the polyproteins
experiment notes: biochemical
particulars: FRET assay, Mpro 50 nM, substrate 10 μM
IC50 listing for selected compounds.

O=C1CCC(N2C(=O)c3cccc(NCCCCCCNC(=O)[C@@H](NC(=O)C(c4cccnc4)N(C(=O)c4ccco4)c4ccc5c(c4)oc4ccccc45)c4ccccc4)c3C2=O)C(=O)N1 (stereo partly shown) [TS296] :: > 25 µM
O=C1CCC(N2C(=O)c3ccc(NCCOCCOCCNC(=O)[C@H](NC(=O)[C@@H](c4cccnc4)N(C(=O)c4ccco4)c4ccc(-c5ccccc5)cc4)c4ccccc4)cc3C2=O)C(=O)N1 (single isomer, unassigned) [TS464] :: < 1 µM
C[C@@H](NC(=O)[C@H](c1cccnc1)N(C(=O)c1ccco1)c1ccc(-c2ccccc2)cc1)c1cccc(OCCCCOc2cccc3c2C(=O)N(C2CCC(=O)NC2=O)C3=O)c1 (stereo partly shown) [TS325F1] :: < 10 µM

Challenge: Look at this compound and give its reported IC50. O=C1CCC(N2C(=O)c3cccc(NCCOCCNC(=O)[C@@H](NC(=O)[C@@H](c4cccnc4)N(C(=O)c4ccco4)c4ccc(-c5ccccc5)cc4)c4ccccc4)c3C2=O)C(=O)N1 (single isomer, unassigned) [TS453F1b]
Response given: < 1 µM

Challenge: Look at this compound and give its reported IC50. O=C1CCC(N2C(=O)c3cccc(NCCNC(=O)[C@@H](NC(=O)[C@@H](c4cccnc4)N(C(=O)c4ccco4)c4ccc5c(c4)oc4ccccc45)c4ccccc4)c3C2=O)C(=O)N1 (mixture of isomers) [TS365F1]
Response given: < 1 µM

Challenge: Look at this compound and give its reported IC50. O=C1CCC(N2C(=O)c3cccc(OCCCCCCCCNC(=O)c4ccc5c(N6C(=O)NC7(CC(c8ccccc8Cl)C7)C6=O)cncc5c4)c3C2=O)C(=O)N1 (stereo not shown) [Compound C10778T]
Response given: < 0.1 µM

Challenge: Look at this compound and give its reported IC50. O=C1CCC(N2C(=O)c3cccc(NCCCCNC(=O)[C@@H](NC(=O)C(c4cccnc4)N(C(=O)c4ccco4)c4ccc5c(c4)oc4ccccc45)c4ccccc4)c3C2=O)C(=O)N1 (mixture of isomers) [TS313F1]
Response given: < 1 µM

Challenge: Look at this compound and give its reported IC50. C[C@@H](NC(=O)C(c1cccnc1)N(C(=O)c1ccco1)c1ccc(-c2ccccc2)cc1)c1cccc(OCCCCOc2cccc3c2C(=O)N(C2CCC(=O)NC2=O)C3=O)c1 (stereo partly shown) [TS325F2]
Response given: < 10 µM

Challenge: Look at this compound and give its reported IC50. O=C1CCC(N2C(=O)c3cc(F)c(N4CCN(CC5CCN(C(=O)[C@H](NC(=O)[C@@H](c6cccnc6)N(C(=O)c6ccco6)c6ccc(-c7ccccc7)cc6)c6ccccc6)CC5)CC4)cc3C2=O)C(=O)N1 (single isomer, unassigned) [TS471]
Response given: < 1 µM

Challenge: Look at this compound and give its reported IC50. O=C1CCC(N2C(=O)c3ccc(NCCCCCCNC(=O)c4ccc5cncc(N6C(=O)NC7(CC(c8ccccc8Cl)C7)C6=O)c5c4)cc3C2=O)C(=O)N1 (stereo not shown) [Compound C10778Q]
Response given: < 1 µM

Challenge: Look at this compound and give its reported IC50. O=C1CCC(N2C(=O)c3cc(F)c(N4CCN(C(=O)[C@H](NC(=O)[C@@H](c5cccnc5)N(C(=O)c5ccco5)c5ccc(-c6ccccc6)cc5)c5ccccc5)CC4)cc3C2=O)C(=O)N1 (single isomer, unassigned) [TS467]
Response given: < 0.1 µM

Challenge: Look at this compound and give its reported IC50. O=C1CCC(N2C(=O)c3cccc(NCCCNC(=O)[C@@H](NC(=O)C(c4cccnc4)N(C(=O)c4ccco4)c4ccc5c(c4)oc4ccccc45)c4ccccc4)c3C2=O)C(=O)N1 (stereo partly shown) [TS284F2]
Response given: < 10 µM

Challenge: Look at this compound and give its reported IC50. O=C1CCC(N2C(=O)c3cccc(NCCOCCOCCNC(=O)[C@@H](NC(=O)C(c4cccnc4)N(C(=O)c4ccco4)c4ccc5c(c4)oc4ccccc45)c4ccccc4)c3C2=O)C(=O)N1 (stereo partly shown) [TS302F1]
Response given: < 10 µM

Challenge: Look at this compound and give its reported IC50. O=C1CCC(N2C(=O)c3cccc(NCCCCCCCCNC(=O)[C@@H](NC(=O)C(c4cccnc4)N(C(=O)c4ccco4)c4ccc5c(c4)oc4ccccc45)c4ccccc4)c3C2=O)C(=O)N1 (mixture of isomers) [TS369F1]
Response given: > 25 µM

Challenge: Look at this compound and give its reported IC50. O=C1CCC(N2C(=O)c3cccc(NCCOCCOCCOCCNC(=O)C(NC(=O)[C@@H](c4cccnc4)N(C(=O)c4ccco4)c4ccc5c(c4)oc4ccccc45)c4ccccc4)c3C2=O)C(=O)N1 (mixture of isomers) [TS297F1]
Response given: < 1 µM

Challenge: Look at this compound and give its reported IC50. O=C1CCC(N2C(=O)c3cccc(OCCOCCOCCOCCNC(=O)c4ccc5c(N6C(=O)NC7(CC(c8ccccc8Cl)C7)C6=O)cncc5c4)c3C2=O)C(=O)N1 (stereo not shown) [Compound C10778Y]
Response given: < 0.1 µM

Challenge: Look at this compound and give its reported IC50. C[C@@H](NC(=O)[C@H](c1cccnc1)N(C(=O)c1ccco1)c1ccc(-c2ccccc2)cc1)c1cccc(OCCCCCCCCOc2cccc3c2C(=O)N(C2CCC(=O)NC2=O)C3=O)c1 (stereo partly shown) [TS339F2]
Response given: 10 to 25 µM

Challenge: Look at this compound and give its reported IC50. O=C1CCC(N2C(=O)c3cccc(OCCNC(=O)c4ccc5cncc(N6C(=O)NC7(CC(c8ccccc8Cl)C7)C6=O)c5c4)c3C2=O)C(=O)N1 (stereo not shown) [Compound C10778P]
Response given: < 0.1 µM

Challenge: Look at this compound and give its reported IC50. O=C1CCC(N2C(=O)c3cccc(NCCCNC(=O)[C@@H](NC(=O)[C@@H](c4cccnc4)N(C(=O)c4ccco4)c4ccc(-c5ccccc5)cc4)c4ccccc4)c3C2=O)C(=O)N1 (single isomer, unassigned) [TS450F1]
Response given: < 1 µM

---

system name: recombinant SARS-CoV-2 main protease (Mpro) (Severe acute respiratory syndrome coronavirus 2, UniProt P0DTD1)
Construct: the main protease (Mpro; also called 3CLpro) which has an essential role in processing the polyproteins
experiment notes: biochemical
particulars: FRET assay, Mpro 50 nM, substrate 10 μM
pIC50: −log10 of the molar value.
pIC50 listing for selected compounds.

In the examples that follow, each entry is paired with its recorded pIC50.
O=C1CCC(N2C(=O)c3ccc(N4CCN(C(=O)[C@H](NC(=O)[C@@H](c5cccnc5)N(C(=O)c5ccco5)c5ccc(-c6ccccc6)cc5)c5ccccc5)CC4)cc3C2=O)C(=O)N1 (single isomer, unassigned) [TS466] :: > 7.00
O=C1CCC(N2C(=O)c3cccc(NCCNC(=O)[C@H](NC(=O)[C@@H](c4cccnc4)N(C(=O)c4ccco4)c4ccc(-c5ccccc5)cc4)c4ccccc4)c3C2=O)C(=O)N1 (mixture of isomers) [TS449F1] :: > 7.00
O=C1CCC(N2C(=O)c3cccc(OCCCCCCCCNC(=O)c4ccc5cncc(N6C(=O)NC7(CC(c8ccccc8Cl)C7)C6=O)c5c4)c3C2=O)C(=O)N1 (stereo not shown) [Compound C10778N] :: > 7.00
O=C(COc1ccc(C2CCC(=O)NC2=O)cc1)NCCCCNC(=O)[C@H](NC(=O)[C@@H](c1cccnc1)N(C(=O)c1ccco1)c1ccc(-c2ccccc2)cc1)c1ccccc1 (single isomer, unassigned) [TS477] :: > 7.00
O=C(COc1ccc(C2CCC(=O)NC2=O)cc1)NCCCCCNC(=O)c1ccc2c(N3C(=O)NC4(CC(c5ccccc5Cl)C4)C3=O)cncc2c1 (stereo not shown) [Compound C10778X] :: > 7.00
O=C1CCC(N2C(=O)c3cccc(OCCCCCCCC(=O)Nc4cccn([C@@H](CC5CC5)C(=O)N[C@@H](C[C@@H]5CCNC5=O)C(=O)C(=O)NCc5ccccc5)c4=O)c3C2=O)C(=O)N1 (stereo partly shown) [BT152] :: > 6.00

Challenge: Look at this compound and give its reported pIC50. C[C@H](NC(=O)[C@@H](c1cccnc1)N(C(=O)c1ccco1)c1ccc(-c2ccccc2)cc1)c1ccccc1OCCCCOc1cccc2c1C(=O)N(C1CCC(=O)NC1=O)C2=O (stereo in doubt) [TS355F1]
Response given: > 5.00

Challenge: Look at this compound and give its reported pIC50. O=C1CCC(N2C(=O)c3cccc(NCCOCCOCCOCCOCCNC(=O)C(NC(=O)[C@@H](c4cccnc4)N(C(=O)c4ccco4)c4ccc5c(c4)oc4ccccc45)c4ccccc4)c3C2=O)C(=O)N1 (mixture of isomers) [TS303F1]
Response given: > 6.00

Challenge: Look at this compound and give its reported pIC50. O=C(COc1ccc(C2CCC(=O)NC2=O)cc1)NCCCCCNC(=O)c1ccc2cncc(N3C(=O)NC4(CC(c5ccccc5Cl)C4)C3=O)c2c1 (stereo not shown) [Compound C10778R]
Response given: > 7.00

Challenge: Look at this compound and give its reported pIC50. C[C@@H](NC(=O)[C@H](c1cccnc1)N(C(=O)c1ccco1)c1ccc(-c2ccccc2)cc1)c1cccc(OCCOc2cccc3c2C(=O)N(C2CCC(=O)NC2=O)C3=O)c1 (stereo partly shown) [TS338F1]
Response given: 4.60 to 5.00
